Test system: SF-295 CNS
Experiment: NCI-60 one-dose screen, 48 h
Settings: 10 µM unless noted
The panel holds about 83,000 compounds, 20% with a hit somewhere; the sample as a whole holds those more often. Active and inactive are the calls of the source. Rule for the calls: active = growth percent below 10; inactive = the rest.
// classify into t (active), f (inactive)

Ask: What outcome does the record of this test show for C[C@H]1[C@H](C)CC[C@]2(CO)CC[C@]3(C)C(=CC[C@@H]4[C@@]5(C)CCCNC(C)(C)[C@@H]5CC[C@]43C)[C@H]12 ?
Result: t

Ask: What outcome does the record of this test show for C=C(C)[C@@H]1CC[C@]2(C=O)CC[C@]3(C)[C@H](CC[C@@H]4[C@@]5(C)CCCNC(C)(C)[C@@H]5CC[C@]43C)[C@@H]12 ?
Result: f

Ask: What outcome does the record of this test show for CCCCCCOc1ccc(C(=N)N(CCCC)CCCC)c2ccccc12 ?
Result: t

Ask: What outcome does the record of this test show for c1ccc2c(-c3c4ccsc4cc4[nH]c5ccccc5c34)c[nH]c2c1 ?
Result: f

----------
System: HCT-15 colon
Assay: NCI-60 one-dose screen, 48 h (100 = growth as untreated, 0 = no growth, -100 = all killed)
Conditions: 10 µM unless noted
This is part of a sample that, as a whole, favours compounds with a hit. Of some 83,000 tested, about 20% had one in any assay.
ASSAY METRIC: growth (%)
Hi! Could you send only the number? It should be in %, unit omitted.

Ask: Indicate its recorded growth; the compound in question is Cc1cc(C)n(Nc2nc3ccccc3[nH]c2=O)c(=O)c1C#N
Result: 102

Ask: Indicate its recorded growth; the compound in question is CO[C@@H]1[C@H](N(C)C(=O)c2ccccc2)C[C@@H]2O[C@]1(C)n1c3ccccc3c3c4c(c5c6ccccc6n2c5c31)C(=O)NC4=O
Result: 25

Ask: Indicate its recorded growth; the compound in question is CC1(C)CCCN1CCCN1c2ccccc2Sc2ccc(Cl)cc21
Result: 50.7

Ask: Indicate its recorded growth; the compound in question is CN1C2CCC1CN(c1cnc(C(=O)Nc3cc(F)cc4cccnc34)cn1)C2
Result: 24.2

Ask: Indicate its recorded growth; the compound in question is CC(O)/C=C/C=C/C(O)CC/C=C/C(=O)NCC(C)(C)O (stereo not given)
Result: 104

----------
System: ACHN renal
Experiment: NCI-60 one-dose screen, 48 h
Conditions: 10 µM unless noted
Compounds without any hit were thinned out: in the full panel of roughly 83,000, 20% have a hit. Active and inactive are the calls of the source. Rule for the calls: active = growth percent below 10; inactive = the rest.
// classify into 1 for active, 0 for inactive

Ask: What outcome does the record of this test show for COc1cc2nc(Cc3ccc(C)cc3)[nH]c(=O)c2cc1OC ?
Result: 0

Ask: What outcome does the record of this test show for COc1ccc(/C=N/C2=C(C#N)C(c3ccccc3[N+](=O)[O-])c3ccc4ccccc4c3O2)cc1 (centres undefined) ?
Result: 0

Ask: What outcome does the record of this test show for COc1cc(C2NC(c3cc(OC)c(OC)c(OC)c3)C(C#N)(C#N)C2(C#N)C#N)cc(OC)c1OC (centres undefined) ?
Result: 0

Ask: What outcome does the record of this test show for COc1cc2c(cc1[N+](=O)[O-])-c1ccc([N+](=O)[O-])cc1/C2=N\O ?
Result: 0

Ask: What outcome does the record of this test show for CNC(=O)Nc1ccc(-c2nc(N3CCOCC3)nc3c2cnn3C2CCOCC2)cc1 ?
Result: 1

Ask: What outcome does the record of this test show for O=C(Nc1ccc2cc3ccc(NC(=O)NC4CCCCC4)cc3nc2c1)NC1CCCCC1 ?
Result: 0

Ask: What outcome does the record of this test show for C(=C\c1n(Cc2ccc3ccccc3c2)c(-c2ccccc2)c(-c2ccccc2)[n+]1Cc1ccc2ccccc2c1)/c1ccccc1 ?
Result: 1

Ask: What outcome does the record of this test show for CN1CCN(c2ccc(NC3=C(Cl)C(=O)c4ncccc4C3=O)cc2C#N)CC1 ?
Result: 1

Ask: What outcome does the record of this test show for O=C1c2cccnc2C(=O)c2nc3cc(N4CCN(C5CC5)CC4)ccc3nc21 ?
Result: 1

----------
Tested on: SK-MEL-28 melanoma
Assay: NCI-60 one-dose screen, 48 h
Settings: 10 µM unless noted
The panel holds about 83,000 compounds, 20% with a hit somewhere; the sample as a whole holds those more often. Calls of active or inactive are those of the source. Rule for the calls: active = growth percent below 10; inactive = the rest.
// classify into TRUE = active, FALSE = inactive

Ask: What outcome does the record of this test show for COc1ccc(C(=O)c2cc(C)c(OC)c(C)c2)c(OC)c1O ?
Result: FALSE

Ask: What outcome does the record of this test show for Cc1ccc(C2CC(c3cccc(Nc4ccncc4)c3)=NN2c2cc(Cl)cc(Cl)c2)cc1 (stereo not given) ?
Result: TRUE

Ask: What outcome does the record of this test show for CC(C)(C)CC(C)(C)Nc1c(-c2ccc(C(F)(F)F)cc2)nc2cnccn12 ?
Result: FALSE

Ask: What outcome does the record of this test show for COc1ccc(/C(C)=N/NC(=O)CSc2nc3ccccc3c(=O)n2Cc2ccc(S(N)(=O)=O)cc2)c(OC)c1 ?
Result: FALSE

Ask: What outcome does the record of this test show for c1ccc(-c2nn(-c3ccccc3)[n+](-c3cccc4ccccc34)n2)cc1 ?
Result: FALSE

Ask: What outcome does the record of this test show for O=CNc1cc(Cl)cc(Cl)c1 ?
Result: FALSE

Ask: What outcome does the record of this test show for COc1ccc(Cn2nc(-c3cc(OC)c(OC)c(OC)c3)c3c2CCc2cnoc2-3)cc1OC ?
Result: FALSE

Ask: What outcome does the record of this test show for CC(=O)O[C@]1(C(C)=O)CC[C@H]2[C@@H]3C=C(Cl)C4=CC(=O)CC[C@]4(C)[C@H]3CC[C@@]21C ?
Result: FALSE

Ask: What outcome does the record of this test show for Clc1nc(Cl)c2ncn(CC3(Cn4cnc5c(Cl)nc(Cl)nc54)COC3)c2n1 ?
Result: TRUE

Ask: What outcome does the record of this test show for Clc1ccc(N2N=C(c3cccc(Nc4ccncc4)c3)CC2c2ccccc2)cc1 (stereo not given) ?
Result: FALSE

----------
Test system: RPMI-8226 leukemia
Test: NCI-60 one-dose screen, 48 h (100 = growth as untreated, 0 = no growth, -100 = all killed)
Details: 10 µM unless noted
About 83,000 compounds went through this panel and 20% of them were active in at least one assay; those are over-represented in the sample as a whole.
Can you tell me growth for the items I'm about to list?
Hi! Could you send only the number? It should be in %, unit omitted.

Ask: Indicate its recorded growth; the molecule in question is Nc1nnc2cc(Cl)ccc2n1
Result: 68.9

Ask: Indicate its recorded growth; the molecule in question is CCN(CC)CCCC(C)Nc1c2c(nc3ccc(OC)cc13)CCCC2 (stereo unspecified)
Result: 100

Ask: Indicate its recorded growth; the molecule in question is COc1c(Cl)cc(Cl)c2ccc(C=C3C(=O)N(C)C(=O)N(C)C3=O)nc12
Result: 102

Ask: Indicate its recorded growth; the molecule in question is O=C1CCCN1c1cccc2cccnc12
Result: 102

Ask: Indicate its recorded growth; the molecule in question is CCCCCCCCCCCCCCCC(=O)OC[C@@]1(O)C[C@@]23CC[C@@H]4C(C)(C)CCC[C@@]4(C)[C@@H]2CC[C@H]1C3
Result: 81.9

Ask: Indicate its recorded growth; the molecule in question is CCc1nc(C)cn1C(=O)OCc1nc2nc(Cl)nc(N3CCOCC3)c2[nH]1
Result: -33.1

Ask: Indicate its recorded growth; the molecule in question is CCC1(CC)NC(=O)c2c(c3ccc(Cl)c(Cl)c3n2C)C1C#N (stereo unspecified)
Result: 88.6

Ask: Indicate its recorded growth; the molecule in question is Cc1ccc(S(=O)(=O)Nc2ccc(Cl)cc2)cc1
Result: 101

Ask: Indicate its recorded growth; the molecule in question is Fc1ccc(C2CC(c3cccc(Nc4ccncc4)c3)=NN2c2ccccc2)cc1 (stereo unspecified)
Result: 1.2

Ask: Indicate its recorded growth; the molecule in question is O=C(OCc1nc2nc(Cl)nc(N3CCOCC3)c2[nH]1)n1ccnc1
Result: -35.7

Ask: Indicate its recorded growth; the molecule in question is CSc1nc(O)c(-c2ccccc2)c(=O)[nH]1
Result: 102

----------
Tested on: M14 melanoma
Experiment: NCI-60 one-dose screen, 48 h
Details: 10 µM unless noted
Compounds without any hit were thinned out: in the full panel of roughly 83,000, 20% have a hit. Calls of active or inactive are those of the source. Rule for the calls: active = growth percent below 10; inactive = the rest.
// classify into 1.0 (active), 0.0 (inactive)

Ask: What outcome does the record of this test show for CCCCN(CCCC)CCc1c(C)cc(C)c(CCN(CCCC)CCCC)c1O ?
Result: 0.0

Ask: What outcome does the record of this test show for COc1cc2nc(-c3ccc(-c4nn[nH]n4)cc3)[nH]c(=O)c2cc1OC ?
Result: 0.0

Ask: What outcome does the record of this test show for CCn1ccnc1C(=O)/C=C/c1ccc(CC(=O)Nc2ccc(F)cc2)cc1 ?
Result: 0.0

Ask: What outcome does the record of this test show for COc1cc2nc(-c3ccc(C(F)(F)F)cc3)cc(OCCCN3CCCCC3)c2cc1OC ?
Result: 1.0

Ask: What outcome does the record of this test show for CN1CCN(c2cnc(C(=O)Nc3cc(F)cc4cccnc34)cn2)CC1 ?
Result: 0.0

Ask: What outcome does the record of this test show for COc1cccc(CCC(=O)c2cc3c(N)c(C(=O)Nc4cccc(Cl)c4C)sc3nc2C)c1 ?
Result: 0.0

Ask: What outcome does the record of this test show for C#CCNC(=O)[C@H](Cc1ccccc1)NC(=O)[C@]12CC[C@@H](C(=C)C)[C@@H]1[C@H]1CC[C@@H]3[C@@]4(C)Cc5c([nH]c6ccccc56)C(C)(C)[C@@H]4CC[C@@]3(C)[C@]1(C)CC2 ?
Result: 0.0

Ask: What outcome does the record of this test show for O=C(Nc1ccc2ncnc(Nc3ccc(Oc4cccc(F)c4)c(Cl)c3)c2c1)c1ccc(CN2CCOCC2)cc1 ?
Result: 0.0

Ask: What outcome does the record of this test show for COc1cc(C2NC(c3cc(OC)c(OC)c(OC)c3)C(C#N)(C#N)C2(C#N)C#N)cc(OC)c1OC (stereo unspecified) ?
Result: 0.0

Ask: What outcome does the record of this test show for CCOC(=O)c1c(SC)nn(-c2cc(=O)[nH]c3ccc(Br)cc23)c1N ?
Result: 0.0

Ask: What outcome does the record of this test show for O=C(N=Nc1c(O)[nH]c2ccc(F)cc12)c1cc2ccccc2[nH]1 ?
Result: 0.0

Ask: What outcome does the record of this test show for Cc1cc(Nc2cccc(C(F)(F)F)c2)n2c(nc3ccccc32)c1C#N ?
Result: 0.0

Ask: What outcome does the record of this test show for COc1ccc(NC(=O)c2sc3nc(C)c(C(O)c4ccc(OC)cc4)cc3c2N)cc1 (stereo unspecified) ?
Result: 0.0

Ask: What outcome does the record of this test show for COc1ccc2c(c1)OC1=C(C(=O)OC1)C2c1cc(OC)c(OC)c(OC)c1 (stereo unspecified) ?
Result: 0.0

Ask: What outcome does the record of this test show for Fc1ccc(-n2cc(COc3ncnc4sc5c(c34)CCCC5)nn2)cc1Cl ?
Result: 0.0

Ask: What outcome does the record of this test show for O=C(N/N=C/c1ccc(O)c(O)c1)c1sc2ccccc2c1Cl ?
Result: 0.0

Ask: What outcome does the record of this test show for CC(=O)N1N=C(c2cccc(Nc3ccncc3)c2)CC1c1ccccc1 (stereo unspecified) ?
Result: 1.0

Ask: What outcome does the record of this test show for CCCc1cc2c(cc1Br)OCO2 ?
Result: 0.0

Ask: What outcome does the record of this test show for COc1cccc(/C=C2\COc3ccc(-c4ccccc4)cc3C2=O)c1 ?
Result: 0.0

Ask: What outcome does the record of this test show for COc1cc(-c2cc(=O)oc3cc(O)ccc23)c(OC)c2c1OCO2 ?
Result: 0.0

Ask: What outcome does the record of this test show for Clc1nc(Nc2ccccc2)nc(Nc2ccccc2)n1 ?
Result: 0.0

Ask: What outcome does the record of this test show for CCC(C)C(N)C(=O)NNc1n[nH]c(=S)n1N (stereo unspecified) ?
Result: 0.0

Ask: What outcome does the record of this test show for ClCC1(Cn2cnc3c(Cl)nc(Cl)nc32)COC1 ?
Result: 0.0

Ask: What outcome does the record of this test show for O=C1Nc2c(ccc(Cl)c2Cl)/C1=C/c1ccccn1 ?
Result: 0.0

Ask: What outcome does the record of this test show for O=c1[nH]nc(-c2ccc(Cl)cc2)cc1Cc1cccc([N+](=O)[O-])c1 ?
Result: 0.0

Ask: What outcome does the record of this test show for O=C(Nc1cccc(Cl)c1)Oc1c(Br)c(Br)c(Br)c(Br)c1Br ?
Result: 0.0

Ask: What outcome does the record of this test show for [2H]C1([2H])NC([2H])([2H])C([2H])([2H])N(c2ccc(Nc3ncc4cc(C(=O)N(C)C)n(C5CCCC5)c4n3)nc2)C1([2H])[2H] ?
Result: 0.0

Ask: What outcome does the record of this test show for CC(C)(O)C1CCCN1C(=O)c1ccccc1I (stereo unspecified) ?
Result: 0.0

Ask: What outcome does the record of this test show for COc1ccc(C(=O)/C=C/c2ccc(OCc3ccccc3)c(OC)c2)cc1OC ?
Result: 0.0

Ask: What outcome does the record of this test show for Cc1ccc(-c2csc(/N=C3\C(=O)Nc4ccccc43)n2)cc1 ?
Result: 0.0

Ask: What outcome does the record of this test show for O=S(=O)(c1ccc(N/N=C\c2ccccc2)cc1)c1ccc(N/N=C/c2ccccc2)cc1 ?
Result: 0.0

Ask: What outcome does the record of this test show for O=S(=O)(c1ccccc1)N1CCCc2ccccc21 ?
Result: 0.0

Ask: What outcome does the record of this test show for COc1ccc(C(O)c2cc3c(N)c(C(=O)Nc4cccc(Br)c4C)sc3nc2C)cc1 (stereo unspecified) ?
Result: 0.0

Ask: What outcome does the record of this test show for CC(=O)CCSc1ccc(OC(C)=O)cc1 ?
Result: 0.0

Ask: What outcome does the record of this test show for COc1ccc(-c2cnc(N)nc2-c2ccc(OC)cc2O)cc1 ?
Result: 0.0

Ask: What outcome does the record of this test show for O=C(CN1CCOCC1)Nc1ccc2ncnc(Nc3ccc(Oc4cccc(F)c4)c(Cl)c3)c2c1 ?
Result: 0.0

Ask: What outcome does the record of this test show for CC(C)Sc1nc(NN)c(C#N)c(-c2ccccc2)n1 ?
Result: 0.0

Ask: What outcome does the record of this test show for [O-][n+]1ccccc1CCN(O)CCc1cccc[n+]1[O-] ?
Result: 0.0

Ask: What outcome does the record of this test show for CCCC/C(=N\N=C(N)N)c1ccc(F)cc1 ?
Result: 0.0

Ask: What outcome does the record of this test show for C(=C\c1n(Cc2ccc3ccccc3c2)c(-c2ccccc2)c(-c2ccccc2)[n+]1Cc1ccc2ccccc2c1)/c1ccccc1 ?
Result: 1.0

Ask: What outcome does the record of this test show for COc1cc2ncnc(Nc3ccc(C(=O)/C=C/c4ccc(C(F)(F)F)cc4F)cc3)c2cc1OC ?
Result: 0.0

The measured values listed here are drawn from PubChem BioAssay (NCI).
